Where do the numbers come from? From ChEMBL document CHEMBL1649119.

Experiment: Drug excretion in adult human with hepatic impairment urine assessed as unchanged drug at 6 mg/kg, iv administered as single dose 30 mins infusion
Assay type: ADME, organism-based
Set-up: dose 6 mg/kg, route intravenous
Conditions: read-out: Drug uptake
Readout type: dose excreted at 0.5 h (%)
Express your answer in %, writing the number without its unit.

[in] Entry CCCCCCCCCC(=O)N[C@@H](Cc1c[nH]c2ccccc12)C(=O)N[C@H](CC(N)=O)C(=O)N[C@@H](CC(=O)O)C(=O)N[C@@H]1C(=O)NCC(=O)N[C@@H](CCCN)C(=O)N[C@@H](CC(=O)O)C(=O)N[C@H](C)C(=O)N[C@@H](CC(=O)O)C(=O)NCC(=O)N[C@H](CO)C(=O)N[C@@H]([C@H](C)CC(=O)O)C(=O)N[C@@H](CC(=O)c2ccccc2N)C(=O)O[C@@H]1C : reported dose excreted at 0.5 h = ?
[out] 49.3

====

Test: Clearance in nonobese adult human at 4 mg/kg, iv administered as single dose 30 mins infusion
Assay type: ADME, organism-based
Set-up: dose 4 mg/kg, route intravenous
Conditions: in vivo
Readout type: clearance (mL/min/kg)
Give the value, in units of mL/min/kg, as a plain number.

[in] Quick one: clearance for CCCCCCCCCC(=O)N[C@@H](Cc1c[nH]c2ccccc12)C(=O)N[C@H](CC(N)=O)C(=O)N[C@@H](CC(=O)O)C(=O)N[C@@H]1C(=O)NCC(=O)N[C@@H](CCCN)C(=O)N[C@@H](CC(=O)O)C(=O)N[C@H](C)C(=O)N[C@@H](CC(=O)O)C(=O)NCC(=O)N[C@H](CO)C(=O)N[C@@H]([C@H](C)CC(=O)O)C(=O)N[C@@H](CC(=O)c2ccccc2N)C(=O)O[C@@H]1C ?
[out] 0.245

====

Experiment: AUC (0 to infinity) in healthy human subjects at 10 mg/kg, iv administered as 30 mins infusion every 24 hrs measured on day 14
Format: ADME, organism-based
Set-up: time infinity, dose 10 mg/kg, route intravenous
Details: plasma
Readout type: AUC(0-inf) (µg·h/mL)
Report as a plain number; the unit µg·h/mL is understood.

[in] Fill in: AUC(0-inf) of CCCCCCCCCC(=O)N[C@@H](Cc1c[nH]c2ccccc12)C(=O)N[C@H](CC(N)=O)C(=O)N[C@@H](CC(=O)O)C(=O)N[C@@H]1C(=O)NCC(=O)N[C@@H](CCCN)C(=O)N[C@@H](CC(=O)O)C(=O)N[C@H](C)C(=O)N[C@@H](CC(=O)O)C(=O)NCC(=O)N[C@H](CO)C(=O)N[C@@H]([C@H](C)CC(=O)O)C(=O)N[C@@H](CC(=O)c2ccccc2N)C(=O)O[C@@H]1C is ___
[out] 1080

====

Test: AUC (0 to infinity) in healthy human at 8 mg/kg, iv administered as 30 mins infusion every 24 hrs measured on day 7
Type: ADME, organism-based
Set-up: dose 8 mg/kg, route intravenous, time infinity
Conditions: plasma
Readout type: AUC(0-inf) (µg·h/mL)
Number only, in µg·h/mL; omit the unit.

[in] Tell me the measured AUC(0-inf) of CCCCCCCCCC(=O)N[C@@H](Cc1c[nH]c2ccccc12)C(=O)N[C@H](CC(N)=O)C(=O)N[C@@H](CC(=O)O)C(=O)N[C@@H]1C(=O)NCC(=O)N[C@@H](CCCN)C(=O)N[C@@H](CC(=O)O)C(=O)N[C@H](C)C(=O)N[C@@H](CC(=O)O)C(=O)NCC(=O)N[C@H](CO)C(=O)N[C@@H]([C@H](C)CC(=O)O)C(=O)N[C@@H](CC(=O)c2ccccc2N)C(=O)O[C@@H]1C , please.
[out] 1130

====

Assay: Half life in healthy human subjects at 10 mg/kg, iv administered as 30 mins infusion every 24 hrs measured on day 1
Format: ADME, organism-based
Design: dose 10 mg/kg, route intravenous
Conditions: in vivo
Readout type: half-life (h)
The reply should be a number in h, with the unit left off.

[in] For the molecule shown here, CCCCCCCCCC(=O)N[C@@H](Cc1c[nH]c2ccccc12)C(=O)N[C@H](CC(N)=O)C(=O)N[C@@H](CC(=O)O)C(=O)N[C@@H]1C(=O)NCC(=O)N[C@@H](CCCN)C(=O)N[C@@H](CC(=O)O)C(=O)N[C@H](C)C(=O)N[C@@H](CC(=O)O)C(=O)NCC(=O)N[C@H](CO)C(=O)N[C@@H]([C@H](C)CC(=O)O)C(=O)N[C@@H](CC(=O)c2ccccc2N)C(=O)O[C@@H]1C , give the reported half-life.
[out] 8.4

====

Assay: Volume of distribution at steady state in nonobese adult human at 4 mg/kg, iv administered as single dose 30 mins infusion
Format: ADME, organism-based
Parameters: dose 4 mg/kg, route intravenous
Conditions: in vivo, read-out: Vdss
Readout type: Vd (L/kg)
Numeric answer only, unit L/kg assumed.

[in] Would you kindly share the measured Vd for CCCCCCCCCC(=O)N[C@@H](Cc1c[nH]c2ccccc12)C(=O)N[C@H](CC(N)=O)C(=O)N[C@@H](CC(=O)O)C(=O)N[C@@H]1C(=O)NCC(=O)N[C@@H](CCCN)C(=O)N[C@@H](CC(=O)O)C(=O)N[C@H](C)C(=O)N[C@@H](CC(=O)O)C(=O)NCC(=O)N[C@H](CO)C(=O)N[C@@H]([C@H](C)CC(=O)O)C(=O)N[C@@H](CC(=O)c2ccccc2N)C(=O)O[C@@H]1C ?
[out] 0.13

====

Experiment: Renal clearance in morbidly obese adult human at 4 mg/kg, iv administered as single dose 30 mins infusion
Assay type: ADME, organism-based, Kidney
Design: dose 4 mg/kg, route intravenous
Settings: in vivo, read-out: CL_renal (converted)
Readout type: CL renal at 0.5 h (mL/min/kg)
API: value field is a number in mL/min/kg; no unit string.

[in] I am curious: what CL renal at 0.5 h value has been reported for CCCCCCCCCC(=O)N[C@@H](Cc1c[nH]c2ccccc12)C(=O)N[C@H](CC(N)=O)C(=O)N[C@@H](CC(=O)O)C(=O)N[C@@H]1C(=O)NCC(=O)N[C@@H](CCCN)C(=O)N[C@@H](CC(=O)O)C(=O)N[C@H](C)C(=O)N[C@@H](CC(=O)O)C(=O)NCC(=O)N[C@H](CO)C(=O)N[C@@H]([C@H](C)CC(=O)O)C(=O)N[C@@H](CC(=O)c2ccccc2N)C(=O)O[C@@H]1C ?
[out] 0.134

====

Assay: Clearance in healthy human subjects at 6 mg/kg, iv administered as 30 mins infusion every 24 hrs measured on day 4
Type: ADME, organism-based
Set-up: dose 6 mg/kg, route intravenous
Settings: in vivo
Readout type: clearance

[in] # query: clearance of entry CCCCCCCCCC(=O)N[C@@H](Cc1c[nH]c2ccccc12)C(=O)N[C@H](CC(N)=O)C(=O)N[C@@H](CC(=O)O)C(=O)N[C@@H]1C(=O)NCC(=O)N[C@@H](CCCN)C(=O)N[C@@H](CC(=O)O)C(=O)N[C@H](C)C(=O)N[C@@H](CC(=O)O)C(=O)NCC(=O)N[C@H](CO)C(=O)N[C@@H]([C@H](C)CC(=O)O)C(=O)N[C@@H](CC(=O)c2ccccc2N)C(=O)O[C@@H]1C
[out] 0.152 mL/min/kg

====

Experiment: Apparent volume of distribution during terminal phase in healthy human subjects at 12 mg/kg, iv administered as 30 mins infusion every 24 hrs measured on day 4
Assay type: ADME, organism-based
Parameters: dose 12 mg/kg, route intravenous
Details: in vivo
Readout type: Vd (L/kg)
Numbers only; they are read as L/kg.

[in] State the recorded Vd for this entry: CCCCCCCCCC(=O)N[C@@H](Cc1c[nH]c2ccccc12)C(=O)N[C@H](CC(N)=O)C(=O)N[C@@H](CC(=O)O)C(=O)N[C@@H]1C(=O)NCC(=O)N[C@@H](CCCN)C(=O)N[C@@H](CC(=O)O)C(=O)N[C@H](C)C(=O)N[C@@H](CC(=O)O)C(=O)NCC(=O)N[C@H](CO)C(=O)N[C@@H]([C@H](C)CC(=O)O)C(=O)N[C@@H](CC(=O)c2ccccc2N)C(=O)O[C@@H]1C
[out] 0.0976

====

Assay: AUC (0 to infinity) in healthy human at 6 mg/kg, iv administered as 30 mins infusion every 24 hrs measured on day 1
Type: ADME, organism-based
Set-up: time infinity, dose 6 mg/kg, route intravenous
Settings: plasma
Readout type: AUC(0-inf) (µg·h/mL)
Just the number in µg·h/mL, nothing appended.

[in] For the compound CCCCCCCCCC(=O)N[C@@H](Cc1c[nH]c2ccccc12)C(=O)N[C@H](CC(N)=O)C(=O)N[C@@H](CC(=O)O)C(=O)N[C@@H]1C(=O)NCC(=O)N[C@@H](CCCN)C(=O)N[C@@H](CC(=O)O)C(=O)N[C@H](C)C(=O)N[C@@H](CC(=O)O)C(=O)NCC(=O)N[C@H](CO)C(=O)N[C@@H]([C@H](C)CC(=O)O)C(=O)N[C@@H](CC(=O)c2ccccc2N)C(=O)O[C@@H]1C , what AUC(0-inf) is on record?
[out] 705
